Molecular target: MLK3 (Homo sapiens (Human))
Assay: Evaluation of inhibitory activity of enzyme units, MLK3 ([γ-33P]-ATP filter assay)
Details: read-out: IC50(nM) MLK3
Give IC50 for every item shown.
Report only the number, with the unit nM understood.

Quick one: give measured IC50 for "Cc1cc(-c2nc3c(Nc4cccc(S(N)(=O)=O)c4)c(Br)cnc3[nH]2)c(C)n1-c1cccc(N2CCOCC2)c1"
47

Quick one: give measured IC50 for "CCS(=O)(=O)N1CC[C@H](Nc2c(Br)cnc3[nH]c(-c4cc(C)n(-c5cccc(S(=O)(=O)N6CCOCC6)c5)c4C)nc23)C1"
7

Quick one: give measured IC50 for "CCS(=O)(=O)N1CC[C@H](Nc2c(Br)cnc3nc(-c4cc(C)n(-c5cccc(C(=O)NCCN(C)C)c5C)c4C)[nH]c23)C1"
14

Quick one: give measured IC50 for "CCS(=O)(=O)N1CC[C@H](Nc2c(Br)cnc3[nH]c(-c4cc(C)n(-c5cccc(C(=O)NCCN6CCOCC6)c5)c4C)nc23)C1"
13

Quick one: give measured IC50 for "Cc1ccc(NC(=O)CN2CCOCC2)cc1-n1c(C)cc(-c2nc3ncc(Br)c(Nc4cccc(S(N)(=O)=O)c4)c3[nH]2)c1C"
52

Quick one: give measured IC50 for "Cc1c(NS(C)(=O)=O)cccc1-n1c(C)cc(-c2nc3c(Nc4cccc(S(N)(=O)=O)c4)c(Br)cnc3[nH]2)c1C"
41

###

Molecular target: MLK3 (Homo sapiens (Human), UniProt Q16584)
Sequence (Q16584 whole entry, looked up): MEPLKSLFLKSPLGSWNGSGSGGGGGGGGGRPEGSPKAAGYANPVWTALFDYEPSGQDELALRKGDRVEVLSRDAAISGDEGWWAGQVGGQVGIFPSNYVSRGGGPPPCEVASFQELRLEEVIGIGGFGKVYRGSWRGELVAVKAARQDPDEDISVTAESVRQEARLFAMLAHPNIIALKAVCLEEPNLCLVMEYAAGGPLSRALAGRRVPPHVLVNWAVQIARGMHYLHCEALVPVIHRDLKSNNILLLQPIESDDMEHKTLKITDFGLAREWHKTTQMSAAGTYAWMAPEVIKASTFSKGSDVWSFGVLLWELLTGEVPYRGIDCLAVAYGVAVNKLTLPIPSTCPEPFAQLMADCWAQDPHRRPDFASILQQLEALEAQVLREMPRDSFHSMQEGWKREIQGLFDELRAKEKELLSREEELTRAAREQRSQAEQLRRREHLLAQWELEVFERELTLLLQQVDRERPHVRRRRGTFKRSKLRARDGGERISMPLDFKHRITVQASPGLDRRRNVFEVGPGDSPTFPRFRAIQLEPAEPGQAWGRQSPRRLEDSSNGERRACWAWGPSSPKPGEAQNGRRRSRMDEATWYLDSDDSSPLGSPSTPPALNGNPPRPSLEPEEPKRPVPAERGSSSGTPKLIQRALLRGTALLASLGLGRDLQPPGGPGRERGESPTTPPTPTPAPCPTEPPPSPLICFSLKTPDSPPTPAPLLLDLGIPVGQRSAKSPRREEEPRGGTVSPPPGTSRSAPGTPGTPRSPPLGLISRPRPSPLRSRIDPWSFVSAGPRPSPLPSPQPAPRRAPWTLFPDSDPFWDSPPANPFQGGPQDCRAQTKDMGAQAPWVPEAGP
Experiment: Evaluation of inhibitory activity of enzyme units, MLK3 ([γ-33P]-ATP filter assay)
Details: read-out: IC50(nM) MLK3
# if measured IC50 < 20 nM: yes  # else: no

Just wondering, is IC50 of "CCS(=O)(=O)N1CC[C@H](Nc2c(Br)cnc3nc(-c4cc(C)n(-c5ccc(OCCOC)cc5)c4C)[nH]c23)C1" below 20 nM?
yes

Just wondering, is IC50 of "CCS(=O)(=O)N1CC[C@H](Nc2c(Br)cnc3nc(-c4cc(C)n(-c5cc(C(=O)N6CCOCC6)ccc5C)c4C)[nH]c23)C1" below 20 nM?
no

Just wondering, is IC50 of "Cc1ccc(C(=O)N2CCN(C)CC2)cc1-n1c(C)cc(-c2nc3ncc(Br)c(Nc4cccc(S(N)(=O)=O)c4)c3[nH]2)c1C" below 20 nM?
no

Just wondering, is IC50 of "CCS(=O)(=O)N1CC[C@H](Nc2c(Br)cnc3nc(-c4cc(C)n(-c5cccc(C(=O)N6CCN(C)CC6)c5C)c4C)[nH]c23)C1" below 20 nM?
yes

Just wondering, is IC50 of "CCS(=O)(=O)N1CC[C@H](Nc2c(Br)cnc3nc(-c4cc(C)n(-c5ccc(C(=O)N6CCN(C)CC6)cc5)c4C)[nH]c23)C1" below 20 nM?
yes

Just wondering, is IC50 of "CCS(=O)(=O)N1CC[C@H](Nc2c(Br)cnc3nc(-c4cc(C)n(-c5cc(NC(=O)CN6CCN(C)CC6)ccc5C)c4C)[nH]c23)C1" below 20 nM?
no

###

Target: LRRK2 mutant (G2019S) (Homo sapiens (Human), UniProt Q5S007, G2019S)
Sequence (Q5S007 whole entry G2019S, looked up): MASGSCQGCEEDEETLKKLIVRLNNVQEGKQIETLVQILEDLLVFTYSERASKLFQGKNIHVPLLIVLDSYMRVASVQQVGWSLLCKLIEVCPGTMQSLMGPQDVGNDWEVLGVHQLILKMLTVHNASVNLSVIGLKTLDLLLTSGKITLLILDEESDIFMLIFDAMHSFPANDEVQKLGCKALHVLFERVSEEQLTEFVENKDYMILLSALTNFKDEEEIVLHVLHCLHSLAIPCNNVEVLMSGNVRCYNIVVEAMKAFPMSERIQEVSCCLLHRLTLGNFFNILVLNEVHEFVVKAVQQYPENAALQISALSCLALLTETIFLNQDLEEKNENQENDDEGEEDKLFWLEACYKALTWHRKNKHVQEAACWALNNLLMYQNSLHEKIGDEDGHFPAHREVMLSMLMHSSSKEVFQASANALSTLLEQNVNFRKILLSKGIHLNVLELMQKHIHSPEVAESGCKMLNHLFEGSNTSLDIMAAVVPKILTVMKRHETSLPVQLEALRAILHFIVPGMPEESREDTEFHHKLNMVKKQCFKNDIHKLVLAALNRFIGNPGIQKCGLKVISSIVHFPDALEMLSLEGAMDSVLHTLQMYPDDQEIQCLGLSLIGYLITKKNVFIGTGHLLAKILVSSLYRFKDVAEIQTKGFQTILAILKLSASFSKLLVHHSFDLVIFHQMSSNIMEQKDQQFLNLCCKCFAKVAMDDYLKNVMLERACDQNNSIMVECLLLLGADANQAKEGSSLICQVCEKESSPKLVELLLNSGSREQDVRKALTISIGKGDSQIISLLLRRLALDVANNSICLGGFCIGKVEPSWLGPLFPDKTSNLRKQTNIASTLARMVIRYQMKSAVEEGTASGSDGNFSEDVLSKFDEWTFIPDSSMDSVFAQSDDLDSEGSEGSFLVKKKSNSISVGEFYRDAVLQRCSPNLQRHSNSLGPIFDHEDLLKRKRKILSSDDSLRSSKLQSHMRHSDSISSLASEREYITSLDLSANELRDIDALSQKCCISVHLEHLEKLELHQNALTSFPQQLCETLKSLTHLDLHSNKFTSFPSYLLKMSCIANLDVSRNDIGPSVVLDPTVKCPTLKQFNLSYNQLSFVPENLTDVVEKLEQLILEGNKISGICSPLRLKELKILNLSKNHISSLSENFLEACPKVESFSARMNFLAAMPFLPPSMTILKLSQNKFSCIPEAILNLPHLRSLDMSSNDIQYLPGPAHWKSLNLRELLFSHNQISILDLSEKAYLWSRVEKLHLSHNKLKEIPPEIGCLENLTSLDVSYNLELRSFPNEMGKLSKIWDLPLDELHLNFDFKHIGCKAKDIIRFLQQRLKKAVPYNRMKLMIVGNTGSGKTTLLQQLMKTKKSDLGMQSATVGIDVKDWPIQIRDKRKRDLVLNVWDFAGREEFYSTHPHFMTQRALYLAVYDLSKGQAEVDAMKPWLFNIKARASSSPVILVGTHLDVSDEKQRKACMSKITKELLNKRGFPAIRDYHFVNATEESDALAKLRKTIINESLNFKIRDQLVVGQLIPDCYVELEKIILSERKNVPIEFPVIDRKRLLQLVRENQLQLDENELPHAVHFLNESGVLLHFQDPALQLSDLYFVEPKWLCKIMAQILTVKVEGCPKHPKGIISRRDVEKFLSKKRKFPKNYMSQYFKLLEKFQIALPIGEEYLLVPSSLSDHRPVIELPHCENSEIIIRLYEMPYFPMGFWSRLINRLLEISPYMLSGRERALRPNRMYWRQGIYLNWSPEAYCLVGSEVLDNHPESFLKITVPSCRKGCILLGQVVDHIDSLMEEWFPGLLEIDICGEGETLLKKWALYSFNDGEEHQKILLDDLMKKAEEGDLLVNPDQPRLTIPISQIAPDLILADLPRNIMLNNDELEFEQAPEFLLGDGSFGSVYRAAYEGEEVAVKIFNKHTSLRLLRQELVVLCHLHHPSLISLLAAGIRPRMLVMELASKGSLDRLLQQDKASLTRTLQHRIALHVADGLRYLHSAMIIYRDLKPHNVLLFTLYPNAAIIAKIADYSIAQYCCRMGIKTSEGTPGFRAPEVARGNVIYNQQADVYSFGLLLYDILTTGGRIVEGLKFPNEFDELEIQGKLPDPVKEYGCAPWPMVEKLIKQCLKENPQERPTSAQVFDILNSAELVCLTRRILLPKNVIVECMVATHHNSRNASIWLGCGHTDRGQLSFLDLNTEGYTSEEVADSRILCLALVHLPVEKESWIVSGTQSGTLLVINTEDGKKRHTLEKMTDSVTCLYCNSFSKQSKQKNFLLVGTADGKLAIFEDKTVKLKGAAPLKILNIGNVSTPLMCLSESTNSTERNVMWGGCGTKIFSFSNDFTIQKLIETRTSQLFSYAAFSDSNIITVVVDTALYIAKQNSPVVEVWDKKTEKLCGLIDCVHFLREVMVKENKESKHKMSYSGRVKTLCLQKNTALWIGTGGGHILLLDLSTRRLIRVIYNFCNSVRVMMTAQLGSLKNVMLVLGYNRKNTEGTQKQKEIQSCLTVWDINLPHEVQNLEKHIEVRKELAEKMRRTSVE
Test: Evaluation of inhibitory activity against LRRK2 (affinity bead competition binding), G2019S mutant
Conditions: 500 nM; read-out: Residual active values (%) LRRK2(G2019S)
Give remaining binding at 0.5 µM for every item shown.
Report only the number, with the unit % understood.

Quick one: give measured remaining binding at 0.5 µM for "CCS(=O)(=O)N1CC[C@H](Nc2c(Br)cnc3[nH]c(-c4cc(C)n(-c5cccc(N6CCOCC6)c5)c4C)nc23)C1"
0.8

Quick one: give measured remaining binding at 0.5 µM for "Cc1ccc(C(=O)NCCN(C)C)cc1-n1c(C)cc(-c2nc3ncc(Br)c(Nc4cccc(S(N)(=O)=O)c4)c3[nH]2)c1C"
0.6

Quick one: give measured remaining binding at 0.5 µM for "CCS(=O)(=O)N1CC[C@H](Nc2c(Cl)cnc3nc(-c4cc(C)n(-c5cccc(C(=O)N6CCOCC6)c5)c4C)[nH]c23)C1"
0.4
